These data points were gathered from ChEMBL document CHEMBL1201862.

Measured GI50 accompanies every entry in the list below.
- Test system: HOP-62
- ASSAY: NCI tumour cell line growth inhibition, 48 h
Calls of active or inactive are those of the source. Cut-off read from the data, not from the text of the source: active = GI50 up to about 1.1 µM and inactive = higher.

MOLECULE: COc1cc(C=O)cc(/C=N/c2ccc(Br)cc2)c1O
ASSAY TARGET: HOP-62
GI50: 11.7 µM (inactive)

MOLECULE: O=[N+]([O-])c1nccn1COCCI
ASSAY TARGET: HOP-62
GI50: > 100 µM (inactive)

MOLECULE: COc1c(C2=NC(C(C)C)CO2)ccc2ccccc12 (stereo unspecified)
ASSAY TARGET: HOP-62
GI50: 47.8 µM (inactive)

MOLECULE: Cc1sc2ccccc2[n+]1CCC(=O)O
ASSAY TARGET: HOP-62
GI50: > 100 µM (inactive)

MOLECULE: S=C1NCCN1C(=S)Nc1ccccc1
ASSAY TARGET: HOP-62
GI50: > 100 µM (inactive)

MOLECULE: CC1=C(C(=O)Nc2ccc(Cl)c(Cl)c2)C(c2ccc([N+](=O)[O-])cc2)C(C(=O)Nc2ccc(Cl)c(Cl)c2)=C(C)N1
ASSAY TARGET: HOP-62
GI50: 2.54 µM (inactive)
